Taken from patent US20220242958A1.

measurement target: human CXCR4 (on cells, membrane extracts or viral lipoparticles) (human, UniProt P61073 1-352)
Sequence (P61073 whole entry): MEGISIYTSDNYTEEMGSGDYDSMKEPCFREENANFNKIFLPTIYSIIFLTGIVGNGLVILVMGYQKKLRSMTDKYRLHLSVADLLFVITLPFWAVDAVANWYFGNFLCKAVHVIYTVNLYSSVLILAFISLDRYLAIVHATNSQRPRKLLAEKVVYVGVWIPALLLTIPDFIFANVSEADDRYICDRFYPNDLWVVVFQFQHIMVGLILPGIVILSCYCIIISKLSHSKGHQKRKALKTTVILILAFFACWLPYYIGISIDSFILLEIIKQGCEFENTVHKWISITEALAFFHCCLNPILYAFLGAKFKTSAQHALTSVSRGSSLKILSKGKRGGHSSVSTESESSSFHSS
test summary: cell-based or functional assay
measurement name: IC50, CXCL-12 induced chemotaxis, Jurkat E6-1 (nM)
Answers are plain numbers, in nM.

For every listed record, write down its IC50, CXCL-12 induced chemotaxis, Jurkat E6-1.
1. 55A01-14D09 (A0110055A01-35GS-4CXCR014D09(Q108L)) (bispecific antibody, the entry carries a c-myc-His6 tag; also made as Flag3-His6-tagged protein; also called CD123#2-CXCR4#1; BI#8/22) EVQLVESGGGSVQAGGSLRLSCTTSGRALNMYVMGWFRQAPGNEREFVAATSSSGGSTSYPDSVKGRFTISRDNAKNTVYLQMNSLKPEDTAAYRCAASPYVSTPTMNILEEYRYWGQGTLVTVSSGGGGSGGGGSGGGGSGGGGSGGGGSGGGGSGGGGSEVQLVESGGGLVQAGGSLRLSCVASGISSSKRNMGWYRQAPGKQRESVATISSGGNKDYTDAVKDRFTISRDTTKNTVYLQMNSLKPEDTAVYYCKIEAGTGWATRRGYTYWGQGTLVTVSSAAAEQKLISEEDLNGAAHHHHHH
2. 14D09-57A07 (4CXCR014D09(Q108L)-35GS-A0110057A07) (bispecific antibody, the entry carries a c-myc-His6 tag; also made as Flag3-His6-tagged protein; also called CXCR4#1-CD123#1; BI#16/20) EVQLVESGGGLVQAGGSLRLSCVASGISSSKRNMGWYRQAPGKQRESVATISSGGNKDYTDAVKDRFTISRDTTKNTVYLQMNSLKPEDTAVYYCKIEAGTGWATRRGYTYWGQGTLVTVSSGGGGSGGGGSGGGGSGGGGSGGGGSGGGGSGGGGSEVQLVESGGGLVQAGGSLRLSCAASGSIFSGNVMGWYRRQAPGKEREWVAAIASGGSIYYRDSVKGRFTISRDNAKNTVYLQMNSLKPEDTAVYYCNSHPPTLPYWGQGTLVTVSSAAAEQKLISEEDLNGAAHHHHHH
3. 281F12-55A01 (4CXCR281F12(Q108L)-35GS-A0110055A01) (bispecific antibody, the entry carries a c-myc-His6 tag; also made as Flag3-His6-tagged protein; also called CXCR4#2-CD123#2; BI#3/17) EVQLVESGGGLVQAGDSLRLSCAASGRAFSRYAMGWFRQAPGKEREFVAAIGWGPSKTNYADSVKGRFTISRDNAKNTVYLQMNTLKPEDTAVYSCAAKFVNTDSTWSRSEMYTYWGQGTLVTVSSGGGGSGGGGSGGGGSGGGGSGGGGSGGGGSGGGGSEVQLVESGGGSVQAGGSLRLSCTTSGRALNMYVMGWFRQAPGNEREFVAATSSSGGSTSYPDSVKGRFTISRDNAKNTVYLQMNSLKPEDTAAYRCAASPYVSTPTMNILEEYRYWGQGTLVTVSSAAAEQKLISEEDLNGAAHHHHHH

### Response
[85, 15, 86]

Batch of 2 binders: report IC50, CXCL-12 induced chemotaxis, Jurkat E6-1 for each.
1. 57A07-14D09 (A0110057A07-35GS-4CXCR014D09(Q108L)) (bispecific antibody, the entry carries a c-myc-His6 tag; for the cell assays the construct was recloned and made in Pichia as Flag3-His6-tagged protein; also called CD123#1-CXCR4#1; BI#11/23) EVQLVESGGGLVQAGGSLRLSCAASGSIFSGNVMGWYRRQAPGKEREWVAAIASGGSIYYRDSVKGRFTISRDNAKNTVYLQMNSLKPEDTAVYYCNSHPPTLPYWGQGTLVTVSSGGGGSGGGGSGGGGSGGGGSGGGGSGGGGSGGGGSEVQLVESGGGLVQAGGSLRLSCVASGISSSKRNMGWYRQAPGKQRESVATISSGGNKDYTDAVKDRFTISRDTTKNTVYLQMNSLKPEDTAVYYCKIEAGTGWATRRGYTYWGQGTLVTVSSAAAEQKLISEEDLNGAAHHHHHH
2. 281F12-57A07 (4CXCR281F12(Q108L)-35GS-A0110057A07) (bispecific antibody, the entry carries a c-myc-His6 tag; also made as Flag3-His6-tagged protein; also called CXCR4#2-CD123#1; BI#4/18) EVQLVESGGGLVQAGDSLRLSCAASGRAFSRYAMGWFRQAPGKEREFVAAIGWGPSKTNYADSVKGRFTISRDNAKNTVYLQMNTLKPEDTAVYSCAAKFVNTDSTWSRSEMYTYWGQGTLVTVSSGGGGSGGGGSGGGGSGGGGSGGGGSGGGGSGGGGSEVQLVESGGGLVQAGGSLRLSCAASGSIFSGNVMGWYRRQAPGKEREWVAAIASGGSIYYRDSVKGRFTISRDNAKNTVYLQMNSLKPEDTAVYYCNSHPPTLPYWGQGTLVTVSSAAAEQKLISEEDLNGAAHHHHHH

### Response
[210, 38]
